- assayedSystem: Gadd45β/MKK7 interaction (Homo sapiens)
- Construct: The GST-fused full-length kinase was coated for 16 h at 4° C., at a concentration of 42 nM; made in house
- Sequence (O14733 1-419): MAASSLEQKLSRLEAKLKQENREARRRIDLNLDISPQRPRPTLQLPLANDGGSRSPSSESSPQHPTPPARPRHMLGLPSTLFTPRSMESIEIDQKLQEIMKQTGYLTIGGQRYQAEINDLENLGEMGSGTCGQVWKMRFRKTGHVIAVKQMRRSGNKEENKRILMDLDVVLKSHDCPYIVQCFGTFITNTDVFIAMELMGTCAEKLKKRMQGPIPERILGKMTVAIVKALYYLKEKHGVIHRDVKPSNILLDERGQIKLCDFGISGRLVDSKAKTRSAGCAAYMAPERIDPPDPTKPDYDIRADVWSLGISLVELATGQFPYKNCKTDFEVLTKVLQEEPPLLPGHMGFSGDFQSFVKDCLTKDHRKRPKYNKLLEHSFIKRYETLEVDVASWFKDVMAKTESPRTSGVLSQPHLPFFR
- testMethodNotes: ELISA competition assay of biotin-hGadd45β binding to coated GST-MKK7
- testConditions: read-out: IC50s in vitro
Square brackets hold non-standard residues; d marks the D form. Peptide text beside a SMILES is read from it. * marks the point of attachment. Cbz = O=C(OCc1ccccc1)*

compound	assayedSystem	measurementUnit	IC50
N=C(N)NCCC[C@@H](NC(=O)[C@@H](Cc1ccc(O)cc1)NC(=O)OCc1ccccc1)C(=O)N[C@H](Cc1ccccc1)C(N)=O [Compound 19, Z-Tyr-Arg-Phe-NH2] (Cbz-[dY]-[dR]-[dF]-NH2)	Gadd45β/MKK7 interaction (Homo sapiens)	nM	0.1
